- System: platelets
- assay-procedure: Collagen-induced platelet aggregation (aggregometer)
- Assay type: cell-based, human
- condition: Homo sapiens, Platelet, read-out: IC50 inhibition of platelet aggregation, 2 μg/mL collagen; 30 min pretreatment

mol | u | IC50
C/C(O)=C(\C#N)C(=O)Nc1cc(Br)ccc1Br | nM | 2780

###

- assay-procedure: Pharmacokinetics in mice (HPLC plasma levels)
- condition: mouse, in vivo, iv, 25 mg/kg

mol | AUC (µM·h)
C/C(O)=C(\C#N)C(=O)Nc1cc(Br)ccc1Br | 384

###

- assay-procedure: Pharmacokinetics in mice (HPLC plasma levels)
- condition: mouse, in vivo, ip, 25 mg/kg
- Description: All collected blood samples were heparinized and centrifuged at 7,000xg for 5 minutes in a microcentrifuge to obtain plasma. The plasma samples were stored at −20° C. until analysis. […] The elimination half-life was estimated by linear regression analysis of the terminal phase of the plasma concentration time profile. […] The systemic clearance (CL) was determined by dividing the does by the AUC (Chen and Uckun, 199; Malaviya et al., 2000; Uckun et al., 1999). […]
result-type: AUC (µM·h)

mol | recorded-measurement
C/C(O)=C(\C#N)C(=O)Nc1cc(Br)ccc1Br | 308

###

- assay-procedure: Pharmacokinetics in mice (HPLC plasma levels)
- condition: mouse, in vivo, ip, 40 mg/kg
result-type: AUC (µM·h)

molecule | result-type | u | recorded-measurement
C/C(O)=C(\C#N)C(=O)Nc1cc(Br)ccc1Br [LFM-A13] | AUC | µM·h | 653

###

- assay-procedure: Pharmacokinetics in mice (HPLC plasma levels)
- condition: mouse, in vivo, ip, 50 mg/kg
result-type: AUC

mol | recorded-measurement
C/C(O)=C(\C#N)C(=O)Nc1cc(Br)ccc1Br | 1020 µM·h

###

- assay-procedure: Pharmacokinetics in mice (HPLC plasma levels)
- condition: mouse, in vivo, ip, 20 mg/kg
result-type: AUC

mol | result-type | recorded-measurement
C/C(O)=C(\C#N)C(=O)Nc1cc(Br)ccc1Br | AUC | 183 µM·h

###

- assay-procedure: Pharmacokinetics in mice (HPLC plasma levels)
- condition: mouse, in vivo, iv, 25 mg/kg
result-type: Cmax (µM)

compound | recorded-measurement
C/C(O)=C(\C#N)C(=O)Nc1cc(Br)ccc1Br [LFM-A13] | 731

###

- assay-procedure: Pharmacokinetics in mice (HPLC plasma levels)
- condition: mouse, in vivo, ip, 40 mg/kg
result-type: Cmax

mol | recorded-measurement
C/C(O)=C(\C#N)C(=O)Nc1cc(Br)ccc1Br | 640 µM
